The measurements presented in this section are drawn from PubChem BioAssay AID1159580.

Here, each record is paired with measured normalized growth data.
# Experiment description: chemical genetic growth profiling, strain panel (AID 1159580);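 also: tested at 20 µM; growth read once vehicle control cultures reached saturation at 30 °C; 1 = growth at the plate median or of vehicle wells; lower values mean less growth of the strain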
# Condition description: S. cerevisiae deletion strains, growth OD, locus YGL227W, strain vid30, hits give low values
Hit rate of the full screen: of about 5,500 compounds, about 2,000 (36%) were called active. Not shown: some 18% with an inconclusive outcome. The list shows a part of the results.
// return just the number, without any unit appended

Example compounds with recorded normalized growth:
C[C@@H]1CC[C@H]2C(C)(C)C3CC12CC[C@@]3(C)O (stereo partly specified) = 0.969
COc1cc2c(cc1OC)C1(O)C(=O)c3ccc(O)c(C(=O)O)c3OC1CO2 (stereo unspecified) = 0.991
CCN1C[C@@]2(COC)C3[C@@H](OC)[C@H]4[C@@H]1[C@]3(C(OC)C[C@H]2O)C1C[C@@]2(O)[C@H](OC(=O)c3ccccc3)C1[C@]4(OC(C)=O)[C@@H](O)[C@@H]2OC (stereo partly specified) = 1.01
CC[C@@H]1OC(=O)C[C@@H](O)[C@H](C)[C@@H](O[C@@H]2O[C@H](C)[C@@H](O)[C@H](N(C)C)[C@H]2O)[C@@H](CCN2C[C@H](C)C[C@H](C)C2)C[C@@H](C)C(=O)/C=C/C(C)=C\[C@@H]1CO[C@@H]1O[C@H](C)[C@@H](O)[C@@H](OC)[C@H]1OC = 0.987
N[C@@H](C(=O)O)[C@@H](O)[C@H](O)[C@H](O)CO = 1.02
C=CCS(=O)C[C@H](N)C(=O)O (stereo partly specified) = 0.969
Cc1oncc1C(=O)Nc1ccc(C(F)(F)F)cc1 = 0.97
COP(=S)(OC)Oc1ccc(Sc2ccc(OP(=S)(OC)OC)cc2)cc1 = 1
CN[C@@H]1C(OC2[C@H](O[C@H]3[C@H](O)[C@@H](O)[C@H](N=C(N)N)[C@@H](O)[C@@H]3N=C(N)N)OC(C)[C@]2(O)CO)OC(CO)C(O)C1O (stereo partly specified) = 0.993
CC(C)=CC1C(C(=O)OCc2cccc(Oc3ccccc3)c2)C1(C)C (stereo unspecified) = 1.01

Next:
Qu. Which normalized growth reading was recorded for the compound `NCCCCCC(=O)O` ?
Ans. 0.998

====

# normalized growth values compiled below
# Experiment description: chemical genetic growth profiling, strain panel (AID 1159580);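 also: tested at 20 µM; growth read once vehicle control cultures reached saturation at 30 °C; 1 = growth at the plate median or of vehicle wells; lower values mean less growth of the strain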
# Condition description: S. cerevisiae deletion strains, growth OD, locus YJR066W, strain TOR1 (second series), hits give low values
In all, about 5,500 compounds went through this assay and about 2,000 (36%) were called active. Another 18% or so got no clear call; they are omitted. Some of the results follow.

Record excerpt, results attached:
N/C(=N/O)c1ccc(Oc2ccc(C3SCCS3)cc2)c([N+](=O)[O-])c1 = 1.01 (inactive)
Cc1cccc(N=NC(C(=O)C(F)(F)F)=C(O)c2cccs2)c1 = 0.988 (inactive)
CC1C(c2ccccc2)N(C)C(c2ccccc2)CC1(O)c1ccc(F)cc1 (stereo not given) = 0.983 (inactive)
CC(C)(C)C1=C(C#N)C(c2c(Cl)cccc2Cl)C(C#N)=C(N)O1 (stereo not given) = 0.983 (inactive)

Qu. Name the reported normalized growth value associated with the molecule `O=S(=O)(NCc1ccc(C(F)(F)F)cc1)c1cc(Br)c(Br)s1`
Ans. 0.794 (inactive)
